B1: F1*; the commonest letter at each place (parent)
chain: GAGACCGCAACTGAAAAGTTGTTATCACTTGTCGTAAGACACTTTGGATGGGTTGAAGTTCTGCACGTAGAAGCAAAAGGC

variants of: B1; test: fraction ligated after 30 min (ligated reads / total reads); higher = more ligase activity; conditions: with F1*sub RNA substrate (template-directed ligation), 42 °C
quantity_name: fraction ligated
Just the number.

Reference set, count: 10
> print(dat)
                                 biosequence     quantity.name  numeric.readout
 1  GAGACCGCAACTGAAAAGTTGTTATCACTTGTATTAAGACACTTTGGATGGGTTGAAGTTCTGCACGTAGAAGCAAAAGGC  fraction ligated            0.843
 2  GAGACCGCAACTGAAAAGTTGTTATCACTGGTCGTAAGACACTTTGCATGGGTTGAAGTTCTGCACGTAGAAGCAAAAGGC  fraction ligated           0.0588
 3  GAGACCGCAACTGAAAAGTTGTTATCACTCGTCGTAATACACTTTGGATGGGTTGAAGTTCTGCACGTAGAAGCAAAAGGC  fraction ligated            0.795
 4  GAGACCGCAACTGAAAAGTTGTTATCACTTGTCGTAAGACACTTTGCATCGGTTGAAGTTCTGCACGTAGAAGCAAAAGGC  fraction ligated           0.0335
 5  GAGACCGCAACTGAAAAGTTGTTATCACTTCTCGAAAGACACTTTGGATGGGTTGAAGTTCTGCACGTAGAAGCAAAAGGC  fraction ligated            0.796
 6  GAGACCGCAACTGAAAAGTTGTTATCAATTGTCGTAAGTCACTTTGGATGGGTTGAAGTTCTGCACGTAGAAGCAAAAGGC  fraction ligated            0.794
 7  GAGACCGCAACTGAAAAGTTGTTATCTCTTGTCGTAAGACACTATGGATGGGTTGAAGTTCTGCACGTAGAAGCAAAAGGC  fraction ligated            0.825
 8  GAGACCGCAACTGAAAAGTTGTTATCACTTGGCGTAAGACACTTTTGATGGGTTGAAGTTCTGCACGTAGAAGCAAAAGGC  fraction ligated            0.647
 9  GAGACCGCAACTGAAAAGTTGTTATCACTTGTCGTAAGACACTCTGGATGGGTTGATGTTCTGCACGTAGAAGCAAAAGGC  fraction ligated            0.806
10  GAGACCGCAACTGAAAAGTTGTTATCACTTGTCGTAAGACACTTTAGTTGGGTTGAAGTTCTGCACGTAGAAGCAAAAGGC  fraction ligated           0.0714

Incoming: Need fraction ligated, item GAGACCGCAACTGAAAAGTTGTTATCACTTGTCGTAAGAAACTTTGGTTGGGTTGAAGTTCTGCACGTAGAAGCAAAAGGC
Outgoing: 0.0719

Incoming: Look at this variant and give its reported fraction ligated. GAGACCGCAACTGAAAAGTTGTTATCACTTGTCGTAAGACACTTTAGATGGGTTTAAGTTCTGCACGTAGAAGCAAAAGGC
Outgoing: 0.783

Incoming: Need fraction ligated, item GAGACCGCAACTGAAAAGTTGTTATCACCTGTCGTAAGACACTGTGGATGGGTTGAAGTTCTGCACGTAGAAGCAAAAGGC
Outgoing: 0.848

Incoming: Look up fraction ligated: GAGACCGCAACTGAAAAGTTGTTATCACTCGTCGTAAGACACTTTGGATGGGTTCAAGTTCTGCACGTAGAAGCAAAAGGC
Outgoing: 0.504

Incoming: Requested read-out: fraction ligated. Entry: GAGACCGCAACTGAAAAGTTGTTATCACTTGTCGTAAGACACTTGGGATGGGTTAAAGTTCTGCACGTAGAAGCAAAAGGC
Outgoing: 0.045
